human CRFR1 (Homo sapiens) pIC50 data
Sequence (P34998 24-415): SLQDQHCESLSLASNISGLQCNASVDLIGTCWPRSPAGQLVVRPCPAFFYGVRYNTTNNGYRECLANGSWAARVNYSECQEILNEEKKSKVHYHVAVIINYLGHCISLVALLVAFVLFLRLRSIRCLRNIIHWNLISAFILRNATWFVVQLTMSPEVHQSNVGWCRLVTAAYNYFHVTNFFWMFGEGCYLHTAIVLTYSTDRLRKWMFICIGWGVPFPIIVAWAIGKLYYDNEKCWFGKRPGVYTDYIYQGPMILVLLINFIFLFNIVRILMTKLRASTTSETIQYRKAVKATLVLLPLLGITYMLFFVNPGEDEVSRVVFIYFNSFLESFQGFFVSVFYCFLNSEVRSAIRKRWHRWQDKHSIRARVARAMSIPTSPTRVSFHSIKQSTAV
pIC50: −log10 of the molar value.
MEASURED PARAMETER: pIC50

> print(dat)
                                   compound  measured.parameter  reported
1  CCc1nn2c(-c3c(OC)cc(COC)cc3OC)c(C)oc2c1N(CC1CC1)C1CCOCC1 [Example 16]               pIC50      6.99
2  CCc1nn2c(-c3c(OC)cc(COC)cc3OC)c(C)oc2c1N(CC1CC1)CC1CC1 [Example 7]               pIC50      7.68
3  COCc1cc(OC)c(-c2c(C)oc3c(N(CC4CCOCC4)CC4CC4)c(C)nn23)c(OC)c1 [Example 10]               pIC50      7.15
4  CCc1nn2c(-c3c(OC)cc(COC)cc3OC)c(C)oc2c1N(CC1CCOCC1)CC1CC1 [Example 5]               pIC50      7.49
5  COCc1cc(OC)c(-c2c(C)oc3c(N(CC(C)C)CC4CCOCC4)c(C)nn23)c(OC)c1 [Example 11]               pIC50      7.30
6  CCc1nn2c(-c3c(OC)cc(COC)cc3OC)coc2c1N(CC1CCOCC1)CC1CC1 [Example 3]               pIC50      7.00
